Molecular target: CFTR ΔF508 (Homo sapiens, UniProt P13569, DEL508-508)
Construct: bronchial epithelial cells isolated from CF patients homozygous for the CFTR ΔF508 mutation; McGill University; Asterand; University of North Carolina hAEC-CF; host or cells: primary human bronchial epithelial cells from CF patients homozygous for ΔF508, differentiated at air-liquid interface
Sequence (P13569 with tags, fused parts or gaps DEL508-508): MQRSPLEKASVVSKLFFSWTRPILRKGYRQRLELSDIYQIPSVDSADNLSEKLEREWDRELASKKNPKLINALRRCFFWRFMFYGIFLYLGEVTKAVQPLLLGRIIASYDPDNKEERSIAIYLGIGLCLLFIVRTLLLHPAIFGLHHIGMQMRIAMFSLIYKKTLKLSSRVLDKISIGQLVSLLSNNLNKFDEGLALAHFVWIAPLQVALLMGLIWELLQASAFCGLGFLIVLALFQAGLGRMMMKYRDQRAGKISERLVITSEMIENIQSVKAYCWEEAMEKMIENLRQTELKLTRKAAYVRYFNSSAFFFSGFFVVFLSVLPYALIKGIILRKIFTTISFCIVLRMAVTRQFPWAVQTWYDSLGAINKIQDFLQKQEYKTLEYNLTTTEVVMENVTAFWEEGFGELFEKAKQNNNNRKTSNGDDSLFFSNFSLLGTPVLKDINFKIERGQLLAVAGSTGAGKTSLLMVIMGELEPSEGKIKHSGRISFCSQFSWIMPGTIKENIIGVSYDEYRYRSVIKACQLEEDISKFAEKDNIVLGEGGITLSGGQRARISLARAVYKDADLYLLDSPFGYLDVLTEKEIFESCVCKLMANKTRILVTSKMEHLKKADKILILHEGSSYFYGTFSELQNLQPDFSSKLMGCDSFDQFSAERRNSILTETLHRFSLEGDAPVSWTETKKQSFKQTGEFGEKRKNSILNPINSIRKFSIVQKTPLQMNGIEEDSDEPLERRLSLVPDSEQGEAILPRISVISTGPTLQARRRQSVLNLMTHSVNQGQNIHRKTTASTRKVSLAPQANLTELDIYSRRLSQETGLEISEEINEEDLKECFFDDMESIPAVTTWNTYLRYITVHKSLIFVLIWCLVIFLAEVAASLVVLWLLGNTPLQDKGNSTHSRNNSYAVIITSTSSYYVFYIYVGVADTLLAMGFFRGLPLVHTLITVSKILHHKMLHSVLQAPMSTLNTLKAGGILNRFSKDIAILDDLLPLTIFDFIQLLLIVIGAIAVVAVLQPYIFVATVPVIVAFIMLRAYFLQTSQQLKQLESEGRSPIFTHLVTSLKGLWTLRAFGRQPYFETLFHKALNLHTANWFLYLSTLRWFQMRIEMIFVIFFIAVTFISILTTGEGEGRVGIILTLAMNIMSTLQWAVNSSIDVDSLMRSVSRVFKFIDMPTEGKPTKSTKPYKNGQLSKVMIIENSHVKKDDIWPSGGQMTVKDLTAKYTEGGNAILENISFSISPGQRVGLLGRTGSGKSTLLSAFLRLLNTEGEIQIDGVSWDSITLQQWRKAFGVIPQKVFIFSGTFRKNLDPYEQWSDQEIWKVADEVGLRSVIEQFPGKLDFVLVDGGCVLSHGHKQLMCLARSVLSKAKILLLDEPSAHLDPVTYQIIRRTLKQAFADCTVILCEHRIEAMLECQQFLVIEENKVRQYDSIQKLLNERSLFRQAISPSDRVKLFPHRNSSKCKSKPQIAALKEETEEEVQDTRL
Assay: Chronic TECC assay, primary bronchial epithelial cells of CF patients homozygous for CFTR ΔF508 (corrector, co-corrector and potentiator)
Assay type: cell-based
Details: chronic TECC; AUC = full area under the curve upon forskolin stimulation; read-out: EC50 (nM) (AUC**)
Please assign no (0) whenever EC50 is at or above 8 nM, and yes (1) whenever it is below.

Solved cases (6 shown):
molecule	cat
CN(C)S(=O)(=O)NC(=O)c1cc(N2CCC(CN3CCOCC3)CC2)c2c(C3CCC3)nn(-c3ccc(F)cc3)c2n1 [Compound 409]	no (0)
CC(C1CCN(c2cc(C(=O)NS(=O)(=O)N(C)C)nc3c2c(C2CCC2)nn3-c2ccc(F)cc2)CC1)N1CCOCC1 (stereo not shown) [Compound 440]	yes (1)
COCC1CCN(c2cc(C(=O)NS(C)(=O)=O)nc3c2c(C(C)C)nn3-c2ccnc(N3CCOCC3)n2)CC1 [Compound 279]	no (0)
COCC1CCN(c2cc(C(=O)NS(=O)(=O)C3CCOC3)nc3c2c(C2CCC2)nn3-c2ccccc2)CC1 (stereo not shown) [Compound 369]	no (0)
CC(C)Oc1cc(-n2nc(C3CCC3)c3c(N4CCC(N5CCOCC5)CC4)cc(C(=O)NS(=O)(=O)N(C)C)nc32)ccn1 [Compound 529]	no (0)
CS(=O)(=O)NC(=O)c1cc(N2CCC(S(C)(=O)=O)CC2)c2c(C3CCC3)nn(-c3ccccc3)c2n1 [Compound 190]	no (0)

We next turn to a different molecule, shown below.
INPUT: Check if EC50 falls below 8 nM for CNS(=O)(=O)NC(=O)c1cc(N2CCC(N3CCN(C4CC4)CC3)CC2)c2c(C3CCC3)nn(-c3ccccc3)c2n1 [Compound 558] .
OUTPUT: yes (1)

----------
Biological target: ΔF508-CFTR (Homo sapiens, UniProt P13569, DEL508-508)
Construct: host or cells: CFBE41o-, doxycycline-inducible
Sequence (P13569 with tags, fused parts or gaps DEL508-508): as above
Test: CFTR cell surface levels using HRP-tagged ΔF508-CFTR expressing CFBE cells, intrinsic corrector capacity
Assay type: cell-based
Set-up: concentration or dose not given beside the values
Conditions: HRP-tagged ΔF508-CFTR expressing CFBE41o- cells; compound alone (intrinsic corrector capacity); 20 hours at 33° C.
Classify as follows. Reported % Activation greater than or equal to 200%: class 1. Reported % Activation below: class 0.

Solved cases (5 shown):
compound	cat
CC(=O)NCCS(=O)(=O)NC(=O)c1cc(N2CCC(N3CCOCC3)CC2)c2c(C3CCC3)nn(-c3ccc(F)cc3)c2n1 [Compound 574]	class 0
CCS(=O)(=O)NC(=O)c1cc(N2CCC(CN3CCCC3)CC2)c2c(C3CCC3)nn(-c3ccccc3)c2n1 [Compound 463]	class 1
CCOC(=O)N1CCC(NS(=O)(=O)NC(=O)c2cc(OCC3CCOCC3)c3c(C4CCC4)nn(-c4ccccc4)c3n2)CC1 [Compound 356]	class 0
COC1CCN(C2CCN(c3cc(C(=O)NS(C)(=O)=O)nc4c3c(OC(C)C)nn4-c3ccc(F)cc3)CC2)CC1 [Compound 644]	class 1
COC1CCN(Cc2ccc(-c3cc(C(=O)NS(C)(=O)=O)nc4c3c(OC(C)C)nn4C3CCCCC3)cc2)CC1 [Compound 635]	class 1

We next turn to a different compound, shown below.
INPUT: I'd appreciate it if you could say whether CCS(=O)(=O)NC(=O)c1cc(-c2ccc(N3CCOCC3)nc2)c2c(C(C)C)nn(-c3cccc(N(C)C)c3)c2n1 [Compound 54] has % Activation at least equal to 200%.
OUTPUT: class 1

Hello, the source for this data is patent US10259810B2, in case you need it.
